Molecular target: GST-Nv-NF-kB (Ser allele) (Nematostella vectensis, UniProt A7UNT2 2-411)
Sequence: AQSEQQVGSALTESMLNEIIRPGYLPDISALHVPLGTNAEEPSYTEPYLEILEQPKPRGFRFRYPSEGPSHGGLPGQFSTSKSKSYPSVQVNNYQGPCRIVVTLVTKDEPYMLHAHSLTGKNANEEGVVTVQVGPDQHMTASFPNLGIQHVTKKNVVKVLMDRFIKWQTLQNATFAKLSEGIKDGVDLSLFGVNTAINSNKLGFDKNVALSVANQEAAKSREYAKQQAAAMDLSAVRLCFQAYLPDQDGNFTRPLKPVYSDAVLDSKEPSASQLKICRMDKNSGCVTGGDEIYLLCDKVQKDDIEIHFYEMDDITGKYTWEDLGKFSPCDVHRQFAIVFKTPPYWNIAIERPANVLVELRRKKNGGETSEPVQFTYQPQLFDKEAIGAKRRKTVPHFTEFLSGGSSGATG
Experiment: protein-binding microarray (PBM); PBM: ~300 nM protein, 6 mM HEPES pH 7.8, 80 mM KCl, 0.5 mM EDTA, 0.5 mM EGTA, 6% glycerol, 35 ng/ul poly-dIdC, 1% milk, 1 h, room temperature; Ap Aiptasia and Nv Nematostella (sea anemones) / Co Capsaspora / Aq Amphimedon (sponge) / Dm Drosophila / Hu human; RHD is the Rel homology domain; high values mean tight binding
Details: dsDNA, one strand shown
Binary call on binding signal: Fulfilled from 5 z-score upward, Not fulfilled beneath that.

[
  {
    "ENTRY_SEQUENCE": "CCGATTAACATCAAAACACTCCCTGATGTTAATCGGGTCTTGATTCGCTTGACGCTGCTG",
    "ASSIGNED_LABEL": "Not fulfilled"
  },
  {
    "ENTRY_SEQUENCE": "CCGATTAACATCAGGGGGAAAGATGATGTTAATCGGGTCTTGATTCGCTTGACGCTGCTG",
    "ASSIGNED_LABEL": "Fulfilled"
  },
  {
    "ENTRY_SEQUENCE": "CCGATTAACATCAGAAGTTCCCCTGATGTTAATCGGGTCTTGATTCGCTTGACGCTGCTG",
    "ASSIGNED_LABEL": "Fulfilled"
  },
  {
    "ENTRY_SEQUENCE": "CCGATTAACATCAAATTTTCCCCTGATGTTAATCGGGTCTTGATTCGCTTGACGCTGCTG",
    "ASSIGNED_LABEL": "Fulfilled"
  },
  {
    "ENTRY_SEQUENCE": "CCGATTAACATCACGGGTTCCCCTGATGTTAATCGGGTCTTGATTCGCTTGACGCTGCTG",
    "ASSIGNED_LABEL": "Fulfilled"
  },
  {
    "ENTRY_SEQUENCE": "CCGATTAACATCAGAACTTCCCCTGATGTTAATCGGGTCTTGATTCGCTTGACGCTGCTG",
    "ASSIGNED_LABEL": "Fulfilled"
  },
  {
    "ENTRY_SEQUENCE": "CCGATTAACATCAAATTTCCCAGTGATGTTAATCGGGTCTTGATTCGCTTGACGCTGCTG",
    "ASSIGNED_LABEL": "Not fulfilled"
  },
  {
    "ENTRY_SEQUENCE": "CCGATTAACATCACCGGGAATTCTGATGTTAATCGGGTCTTGATTCGCTTGACGCTGCTG",
    "ASSIGNED_LABEL": "Not fulfilled"
  },
  {
    "ENTRY_SEQUENCE": "CCGATTAACATCAACGGGAACTCTGATGTTAATCGGGTCTTGATTCGCTTGACGCTGCTG",
    "ASSIGNED_LABEL": "Not fulfilled"
  },
  {
    "ENTRY_SEQUENCE": "CCGATTAACATCAGAAATCCCCATGATGTTAATCGGGTCTTGATTCGCTTGACGCTGCTG",
    "ASSIGNED_LABEL": "Fulfilled"
  },
  {
    "ENTRY_SEQUENCE": "CCGATTAACATCAGGGAAACATATGATGTTAATCGGGTCTTGATTCGCTTGACGCTGCTG",
    "ASSIGNED_LABEL": "Not fulfilled"
  },
  {
    "ENTRY_SEQUENCE": "CCGATTAACATCAGCGGGAATCCTGATGTTAATCGGGTCTTGATTCGCTTGACGCTGCTG",
    "ASSIGNED_LABEL": "Not fulfilled"
  },
  {
    "ENTRY_SEQUENCE": "CCGATTAACATCAACCCCCCCCGTGATGTTAATCGGGTCTTGATTCGCTTGACGCTGCTG",
    "ASSIGNED_LABEL": "Not fulfilled"
  },
  {
    "ENTRY_SEQUENCE": "CCGATTAACATCACAACTTCCCCTGATGTTAATCGGGTCTTGATTCGCTTGACGCTGCTG",
    "ASSIGNED_LABEL": "Fulfilled"
  },
  {
    "ENTRY_SEQUENCE": "CCGATTAACATCAGGGAAATCACTGATGTTAATCGGGTCTTGATTCGCTTGACGCTGCTG",
    "ASSIGNED_LABEL": "Not fulfilled"
  }
]
